biological target: human beta 2 adrenoreceptor (Homo sapiens, UniProt P07550); experiment: frog melanophores transfected with human beta 2 adrenoreceptor, pigment dispersal (light transmittance); settings: melatonin-induced pigment aggregation, change in light transmittance, read-out: IC50 values at the human beta 2 adrenoreceptor (beta 2 agonist activity)
Sequence (P07550 whole entry): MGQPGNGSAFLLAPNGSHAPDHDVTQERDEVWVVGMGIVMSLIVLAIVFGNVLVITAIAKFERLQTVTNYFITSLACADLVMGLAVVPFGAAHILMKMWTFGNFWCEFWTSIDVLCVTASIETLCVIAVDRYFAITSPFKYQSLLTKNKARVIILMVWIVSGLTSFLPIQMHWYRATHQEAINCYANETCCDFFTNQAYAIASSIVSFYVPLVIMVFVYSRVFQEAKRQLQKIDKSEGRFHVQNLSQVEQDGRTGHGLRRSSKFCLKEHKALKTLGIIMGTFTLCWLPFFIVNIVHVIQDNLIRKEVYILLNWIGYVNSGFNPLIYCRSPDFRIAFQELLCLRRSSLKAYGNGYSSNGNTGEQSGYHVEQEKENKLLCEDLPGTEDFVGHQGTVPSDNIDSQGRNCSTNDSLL
pIC50: −log10 of the molar value.
Observed property: pIC50

| Molecule | Observed property | Result |
| --- | --- | --- |
| NS(=O)(=O)c1cccc(CCCCOCCCCCCNC[C@H](O)c2ccc(O)c(NC=O)c2)c1 [Example 1] | pIC50 | > 6.00 |

Okay, next one:
Query: Param item = CC(C)(C)NS(=O)(=O)c1cccc(CCCCOCCCCCCNC[C@H](O)c2ccc(O)c(NC=O)c2)c1 [Example 2] ; retrieve measured pIC50.
Response: > 6.00
